# Tested on: diaphorase
# experiment-notes: Formation of formazan dyes: only diaphorase, not malate (TABLE 13)
# Type: biochemical, Clostridium kluyveri
# condition-summary: 8 h, mean of three experiments
value-type: Absorbance, formation of formazan dyes (Means)
Lab note: jot the number down without any unit.

Please indicate recorded Absorbance, formation of formazan dyes (Means) of Cc1nc(-[n+]2nc(-c3cccc(OCC(=O)O)c3)nn2-c2ccc(S(=O)(=O)[O-])cc2)sc1C [MTS] measured with diaphorase. 0.16

Please indicate recorded Absorbance, formation of formazan dyes (Means) of O=[N+]([O-])c1ccc(-[n+]2nc(-c3ccc(S(=O)(=O)[O-])cc3S(=O)(=O)[O-])nn2-c2ccc(I)cc2)cc1.[Na+] [WST-1] measured with diaphorase. 0.73

Please indicate recorded Absorbance, formation of formazan dyes (Means) of COc1cc([N+](=O)[O-])c(S(=O)(=O)[O-])cc1-n1nc(C(=O)Nc2ccccc2)n[n+]1-c1cc(S(=O)(=O)O)c([N+](=O)[O-])cc1OC [XTT] measured with diaphorase. 0.63

Please indicate recorded Absorbance, formation of formazan dyes (Means) of COc1cc(-c2ccc(-[n+]3nc(-c4ccc(C(=O)N(CCS(=O)(=O)[O-])CCS(=O)(=O)[O-])cc4)nn3-c3nc4ccccc4s3)c(OC)c2)ccc1-[n+]1nc(-c2ccc(C(=O)N(CCS(=O)(=O)[O-])CCS(=O)(=O)[O-])cc2)nn1-c1nc2ccccc2s1.[Na+].[Na+] [WST-5] measured with diaphorase. 0.41

***
Please indicate recorded Absorbance, formation of formazan dyes (Means) of COc1cc([N+](=O)[O-])ccc1-[n+]1nc(-c2ccc(S(=O)(=O)[O-])cc2S(=O)(=O)[O-])nn1-c1ccc([N+](=O)[O-])cc1.[Na+] [WST-8] measured with diaphorase. 0.44

====

# System: diaphorase
# experiment-notes: Formation of formazan dyes: NADH, diaphorase and malate (TABLE 8)
# Assay type: biochemical, Clostridium kluyveri
# condition-summary: NADH, diaphorase and malate; 1 h
# label = true if Formation of formazan dyes, absorbance, Means 1 h < 3 else false

Just wondering, is Formation of formazan dyes, absorbance, Means 1 h of `COc1cc([N+](=O)[O-])c(S(=O)(=O)[O-])cc1-n1nc(C(=O)Nc2ccccc2)n[n+]1-c1cc(S(=O)(=O)O)c([N+](=O)[O-])cc1OC` below 3? true

Just wondering, is Formation of formazan dyes, absorbance, Means 1 h of `COc1cc(-c2ccc(-[n+]3nc(-c4ccc(C(=O)N(CCS(=O)(=O)[O-])CCS(=O)(=O)[O-])cc4)nn3-c3nc4ccccc4s3)c(OC)c2)ccc1-[n+]1nc(-c2ccc(C(=O)N(CCS(=O)(=O)[O-])CCS(=O)(=O)[O-])cc2)nn1-c1nc2ccccc2s1.[Na+].[Na+]` below 3? true

Just wondering, is Formation of formazan dyes, absorbance, Means 1 h of `COc1cc([N+](=O)[O-])ccc1-[n+]1nc(-c2ccc(S(=O)(=O)[O-])cc2S(=O)(=O)[O-])nn1-c1ccc([N+](=O)[O-])cc1.[Na+]` below 3? false

Turning now to a further compound:
Just wondering, is Formation of formazan dyes, absorbance, Means 1 h of `O=[N+]([O-])c1ccc(-[n+]2nc(-c3ccc(S(=O)(=O)[O-])cc3S(=O)(=O)[O-])nn2-c2ccc(I)cc2)cc1.[Na+]` below 3? true
